- ASSAY CONTEXT: male, FVB, mouse, plasma, iv, 20 mg/kg
ASSAY ENDPOINT: clearance (mL/min/kg)
Numbers only, in mL/min/kg.

Quick check: clearance of CC(=O)O[C@@]12CO[C@@H]1C[C@H](O)[C@@]1(C)C(=O)[C@H](O)C3=C(C)[C@@H](OC(=O)[C@H](O)[C@@H](NC(=O)OC(C)(C)C)c4ccccc4)C[C@@](O)([C@@H](OC(=O)c4ccccc4)[C@H]21)C3(C)C ?
32.2

----------
- ASSAY CONTEXT: male, FVB, mouse, plasma, iv, 20 mg/kg
ASSAY ENDPOINT: concentration at 24 hr (ng/mL)
Give bare numbers, in ng/mL.

If you can, please state the reported concentration at 24 hr value of CC(=O)O[C@@]12CO[C@@H]1C[C@H](O)[C@@]1(C)C(=O)[C@H](O)C3=C(C)[C@@H](OC(=O)[C@H](O)[C@@H](NC(=O)OC(C)(C)C)c4ccccc4)C[C@@](O)([C@@H](OC(=O)c4ccccc4)[C@H]21)C3(C)C .
9

This collection of values is drawn from paper PMC3968228.
